The compounds below have reported MIC for Erysipelothrix insidiosa.
Property: MIC (µg/mL)

INSERT INTO measurements (compound, property, reported_result) VALUES
  ('COc1ccc(NC(=O)C[n+]2ccn(CC(OCc3ccc(Cl)cc3Cl)c3ccc(Cl)cc3Cl)c2)cc1 (centres unmarked) [CH2CONHC6H4pOCH3]', 'MIC', 1),
  ('O=C(C[n+]1ccn(CC(OCc2ccc(Cl)cc2)c2ccc(Cl)cc2)c1)Nc1ccc(F)cc1 (centres unmarked) [pClC6H4/CH2C6H4pCl/CH2CONHC6H4pF]', 'MIC', 10),
  ('OC(C[n+]1ccn(CC(OCc2ccc(Cl)cc2Cl)c2ccc(Cl)cc2Cl)c1)c1ccc(Cl)cc1Cl.[Cl-] (centres unmarked) [CH2CHOHC6H32,4(Cl)2]', 'MIC', 1),
  ('O=C(C[n+]1ccn(CC(OCc2ccc(Cl)cc2Cl)c2ccc(Cl)cc2Cl)c1)Nc1ccc(F)cc1 (centres unmarked) [CH2CONHC6H4pF]', 'MIC', 1),
  ('Cc1ccc(OCC[n+]2ccn(CC(OCc3ccc(Cl)cc3Cl)c3ccc(Cl)cc3Cl)c2)cc1 (centres unmarked) [(CH2)2OC6H4pCH3]', 'MIC', 1),
  ('Cc1ccc(C[n+]2ccn(CC(OCc3ccc(Cl)cc3Cl)c3ccc(Cl)cc3Cl)c2)cc1.[Br-] (centres unmarked) [CH2C6H4pCH3]', 'MIC', 10),
  ('O=C(C[n+]1ccn(CC(OCc2ccc(Cl)cc2Cl)c2ccc(Cl)cc2Cl)c1)c1ccc(F)cc1.[Cl-] (centres unmarked) [CH2COC6H4pF]', 'MIC', 1),
  ('Cc1ccc(CNC(=O)C[n+]2ccn(CC(OCc3ccc(Cl)cc3Cl)c3ccc(Cl)cc3Cl)c2)cc1 (centres unmarked) [CH2CONHCH2C6H4pCH3]', 'MIC', 10),
  ('Cc1ccccc1NC(=O)C[n+]1ccn(CC(OCc2c(Cl)cccc2Cl)c2ccc(Cl)cc2Cl)c1 (centres unmarked)', 'MIC', 10),
  ('Fc1ccc(C[n+]2ccn(CC(OCc3ccc(Cl)cc3Cl)c3ccc(Cl)cc3Cl)c2)cc1.[I-] (centres unmarked) [CH2C6H4pF]', 'MIC', 10),
  ('O=C(C[n+]1ccn(CC(OCc2ccc(Cl)cc2Cl)c2ccc(Cl)cc2)c1)Nc1ccc(F)cc1 (centres unmarked) [C6H4pCl/CH2C6H32,4(Cl)2/CH2CONHC6H4pF]', 'MIC', 1),
  ('Fc1ccc(C(c2ccc(Cl)cc2)[n+]2ccn(CC(OCc3ccc(Cl)cc3Cl)c3ccc(Cl)cc3Cl)c2)cc1 (centres unmarked) [drawing 69]', 'MIC', 1),
  ('CC(C(=O)Nc1cccc(Cl)c1)[n+]1ccn(CC(OCc2ccc(Cl)cc2Cl)c2ccc(Cl)cc2Cl)c1 (centres unmarked) [CH(CH3)CONHC6H4mCl]', 'MIC', 1),
  ('Fc1ccc(C(c2ccccc2)[n+]2ccn(CC(OCc3ccc(Cl)cc3Cl)c3ccc(Cl)cc3Cl)c2)cc1 (centres unmarked)', 'MIC', 1);

* * *

In this section we review reported MIC values for a set of molecules.
Tested on: Staphylococcus hemolyticus
Property: MIC (µg/mL)

INSERT INTO assay_data (molecule, experimental_system, reported_result) VALUES
  ('Fc1ccc(C(c2ccccc2)[n+]2ccn(CC(OCc3ccc(Cl)cc3Cl)c3ccc(Cl)cc3Cl)c2)cc1 (centres unmarked)', 'Staphylococcus hemolyticus', 1),
  ('Cc1ccc(C[n+]2ccn(CC(OCc3ccc(Cl)cc3Cl)c3ccc(Cl)cc3Cl)c2)cc1C.[Cl-] (centres unmarked)', 'Staphylococcus hemolyticus', 1),
  ('O.OC(C[n+]1ccn(CC(OCc2ccc(Cl)cc2)c2ccc(Cl)cc2Cl)c1)c1ccc(Cl)cc1.[Br-] (centres unmarked)', 'Staphylococcus hemolyticus', 1),
  ('O=C(C[n+]1ccn(CC(OCc2ccc(Cl)cc2)c2ccc(Cl)cc2Cl)c1)c1ccc(F)cc1.[Cl-] (centres unmarked)', 'Staphylococcus hemolyticus', 1),
  ('Clc1ccc(Cn2cc[n+](CC(OCc3c(Cl)cccc3Cl)c3ccc(Cl)cc3Cl)c2)c(Cl)c1.[Cl-] (centres unmarked)', 'Staphylococcus hemolyticus', 1),
  ('O=C(C[n+]1ccn(CC(OCc2ccc(Cl)cc2)c2ccc(Cl)cc2)c1)Nc1ccc(F)cc1 (centres unmarked)', 'Staphylococcus hemolyticus', 10),
  ('CCCCOC(Cn1cc[n+](CC(=O)Nc2ccc(F)cc2)c1)c1ccccc1Cl (centres unmarked)', 'Staphylococcus hemolyticus', 100),
  ('OC(Cn1cc[n+](CC(OCc2ccc(Cl)cc2Cl)c2ccc(Cl)cc2Cl)c1)c1ccc(Cl)cc1.[Br-] (centres unmarked)', 'Staphylococcus hemolyticus', 1);
